Target: endothelial lipase (EL) (Homo sapiens)
Construct: Conditioned media obtained from HT-1080 cells, which were transformed by RAGE technology (Athersys) to overexpress endogenous EL; endogenous in cells; conditioned medium used as the enzyme source
Sequence (Q9Y5X9 21-500): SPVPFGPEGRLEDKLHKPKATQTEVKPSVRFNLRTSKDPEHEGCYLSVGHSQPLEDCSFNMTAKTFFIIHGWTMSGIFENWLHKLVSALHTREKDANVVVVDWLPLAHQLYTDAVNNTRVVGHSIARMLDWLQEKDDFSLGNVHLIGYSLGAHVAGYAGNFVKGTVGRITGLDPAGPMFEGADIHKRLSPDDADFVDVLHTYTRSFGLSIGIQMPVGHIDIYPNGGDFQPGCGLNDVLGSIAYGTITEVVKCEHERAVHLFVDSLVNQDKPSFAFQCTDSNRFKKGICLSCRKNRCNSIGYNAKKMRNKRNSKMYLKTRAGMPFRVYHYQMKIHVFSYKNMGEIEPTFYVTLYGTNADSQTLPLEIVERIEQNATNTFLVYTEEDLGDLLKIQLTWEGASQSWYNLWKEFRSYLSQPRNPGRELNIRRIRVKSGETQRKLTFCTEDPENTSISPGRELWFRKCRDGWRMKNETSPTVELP
Experiment: Endothelial lipase (EL) enzymatic assay with fluorescent substrate A10070 in DMPG vesicles
Assay type: biochemical
Conditions: conditioned media from HT-1080 cells overexpressing endogenous EL; 20 min preincubation at 37° C.; read-out: HLE_EL_CRC IC50
pIC50 by entry:
For clarity, pIC50 is expressed as the negative log10 of concentration in mol/L.

1) Cn1ccc(C(=O)NCc2ccc(C(F)(F)F)cc2)c(O)c1=O; 5.45
2) Cn1ccc(C(=O)NCCCOc2cccc(F)c2)c(O)c1=O; 6.67

Continue with the next molecule.
# pIC50 measured on endothelial lipase (EL) (Homo sapiens) for item Cn1c(-c2cc(F)cc(C(F)(F)F)c2)cc(C(=O)NCCc2cccc(C(F)(F)F)c2)c(O)c1=O = 6.67

###

Biological target: endothelial lipase (EL) (Homo sapiens, UniProt Q9Y5X9)
Construct: Conditioned media obtained from HT-1080 cells, which were transformed by RAGE technology (Athersys) to overexpress endogenous EL; endogenous in cells; conditioned medium used as the enzyme source
Sequence (Q9Y5X9 21-500): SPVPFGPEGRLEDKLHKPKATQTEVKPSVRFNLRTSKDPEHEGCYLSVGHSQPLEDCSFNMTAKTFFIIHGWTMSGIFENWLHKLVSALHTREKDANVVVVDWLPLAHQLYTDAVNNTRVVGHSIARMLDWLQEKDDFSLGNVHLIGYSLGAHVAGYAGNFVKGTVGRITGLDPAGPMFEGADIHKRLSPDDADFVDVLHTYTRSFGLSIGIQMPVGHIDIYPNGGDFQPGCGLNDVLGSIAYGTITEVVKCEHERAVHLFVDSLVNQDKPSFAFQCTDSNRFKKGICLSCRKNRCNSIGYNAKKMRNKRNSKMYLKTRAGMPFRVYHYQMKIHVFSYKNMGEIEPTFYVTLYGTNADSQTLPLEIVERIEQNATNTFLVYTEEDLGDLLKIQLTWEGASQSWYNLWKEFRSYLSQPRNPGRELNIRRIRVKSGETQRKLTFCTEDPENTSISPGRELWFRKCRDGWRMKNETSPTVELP
Assay: Endothelial lipase (EL) enzymatic assay with fluorescent substrate A10070 in DMPG vesicles
Details: conditioned media from HT-1080 cells overexpressing endogenous EL; 20 min preincubation at 37° C.; read-out: HLE_EL_CRC IC50
observationType: IC50

The recorded IC50 for COc1ccc(CNc2c(C(=O)NCCCc3ccc(Cl)c(Cl)c3)ccn(C)c2=O)cc1 [Example 186] is 0.172 µM

###

Target: endothelial lipase (EL) (Homo sapiens)
Construct: Conditioned media obtained from HT-1080 cells, which were transformed by RAGE technology (Athersys) to overexpress endogenous EL; endogenous in cells; conditioned medium used as the enzyme source
Test: Endothelial lipase (EL) enzymatic assay with fluorescent substrate A10070 in DMPG vesicles
Settings: conditioned media from HT-1080 cells overexpressing endogenous EL; 20 min preincubation at 37° C.; read-out: HLE_EL_CRC IC50
observationType: pIC50
For clarity, pIC50 is expressed as the negative log10 of concentration in mol/L.

1. Cn1c(-c2cc(F)cc(C(F)(F)F)c2)cc(C(=O)NCCc2ccc(C(F)(F)F)cc2)c(O)c1=O [Example 60]; 6.70
2. Cn1ccc(C(=O)NC(CCc2ccc(Cl)c(Cl)c2)c2ccccc2)c(O)c1=O (single isomer, unassigned) [Example 120]; 6.78
3. CC(CNC(=O)c1ccn(C)c(=O)c1O)Oc1ccc(F)cc1 (centres unmarked) [Example 137]; 5.78
4. Cn1ccc(C(=O)NC(CCc2ccc(Cl)c(Cl)c2)C2CC2)c(O)c1=O (single isomer, unassigned) [Example 118]; 5.57

The recorded pIC50 for COC(=O)c1cccc(OCCCNC(=O)c2ccn(C)c(=O)c2O)c1 [Example 198] is 6.74

###

Molecular target: endothelial lipase (EL) (Homo sapiens, UniProt Q9Y5X9)
Construct: Conditioned media obtained from HT-1080 cells, which were transformed by RAGE technology (Athersys) to overexpress endogenous EL; endogenous in cells; conditioned medium used as the enzyme source
Experiment: Endothelial lipase (EL) enzymatic assay with fluorescent substrate A10070 in DMPG vesicles
Settings: conditioned media from HT-1080 cells overexpressing endogenous EL; 20 min preincubation at 37° C.; read-out: HLE_EL_CRC IC50
observationType: pIC50
For clarity, pIC50 is expressed as the negative log10 of concentration in mol/L.

1. COc1ccc(CCNC(=O)c2ccn(C)c(=O)c2O)cc1 [Example 128]; 5.18
2. Cn1ccc(C(=O)NCCCOc2ccc(Cl)c(Cl)c2)c(O)c1=O [Example 194]; 6.68

Continue with the next molecule.
The recorded pIC50 for CC(C)C(CCc1ccc(Cl)c(Cl)c1)NC(=O)c1ccn(C)c(=O)c1O (single isomer, unassigned) [Example 115] is 5.75

###

Target: endothelial lipase (EL) (Homo sapiens)
Construct: Conditioned media obtained from HT-1080 cells, which were transformed by RAGE technology (Athersys) to overexpress endogenous EL; endogenous in cells; conditioned medium used as the enzyme source
Assay: Endothelial lipase (EL) enzymatic assay with fluorescent substrate A10070 in DMPG vesicles
Conditions: conditioned media from HT-1080 cells overexpressing endogenous EL; 20 min preincubation at 37° C.; read-out: HLE_EL_CRC IC50
Decision: IC50 beneath 0.2 µM gives Fulfilled; IC50 meeting or exceeding 0.2 µM gives Not fulfilled.

stdin: IC50 under 0.2 µM? Item: Cn1ccc(C(=O)NCCc2ccc(C(F)(F)F)cc2)c(O)c1=O [Example 136]
stdout: Not fulfilled

###

Biological target: endothelial lipase (EL) (Homo sapiens)
Construct: Conditioned media obtained from HT-1080 cells, which were transformed by RAGE technology (Athersys) to overexpress endogenous EL; endogenous in cells; conditioned medium used as the enzyme source
Sequence (Q9Y5X9 21-500): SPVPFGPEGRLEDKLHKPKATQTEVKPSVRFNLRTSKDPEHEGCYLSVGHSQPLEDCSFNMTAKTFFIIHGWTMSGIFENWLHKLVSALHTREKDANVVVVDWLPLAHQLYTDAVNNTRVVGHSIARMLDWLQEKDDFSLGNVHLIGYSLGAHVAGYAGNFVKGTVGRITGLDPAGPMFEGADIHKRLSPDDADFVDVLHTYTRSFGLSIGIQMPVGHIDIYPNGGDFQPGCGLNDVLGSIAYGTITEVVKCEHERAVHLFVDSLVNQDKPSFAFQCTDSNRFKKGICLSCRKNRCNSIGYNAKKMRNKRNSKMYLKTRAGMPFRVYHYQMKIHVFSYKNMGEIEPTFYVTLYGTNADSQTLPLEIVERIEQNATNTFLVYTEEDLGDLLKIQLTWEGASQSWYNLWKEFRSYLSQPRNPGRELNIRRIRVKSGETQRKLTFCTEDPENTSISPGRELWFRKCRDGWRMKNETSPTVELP
Experiment: Endothelial lipase (EL) enzymatic assay with fluorescent substrate A10070 in DMPG vesicles
Conditions: conditioned media from HT-1080 cells overexpressing endogenous EL; 20 min preincubation at 37° C.; read-out: HLE_EL_CRC IC50
IC50 by entry:

1. Cn1c(C(F)(F)F)cc(C(=O)NCCCOc2ccccc2C(F)(F)F)c(O)c1=O [Example 89]; < 10 nM
2. Cn1c(-c2ccc(Cl)c(C(F)(F)F)c2)cc(C(=O)NCCCc2ccc(Cl)c(Cl)c2)c(O)c1=O [Example 8]; < 10 nM
3. Cn1c(-c2cc(F)cc(C(F)(F)F)c2)cc(C(=O)NCCCOc2ccccc2[N+](=O)[O-])c(O)c1=O [Example 81]; < 10 nM

Continue with the next compound.
The recorded IC50 for Cn1ccc(C(=O)NC(CCc2ccc(Cl)c(Cl)c2)C2CC2)c(O)c1=O (single isomer, unassigned) [Example 119] is 1620 nM

###

Biological target: endothelial lipase (EL) (Homo sapiens, UniProt Q9Y5X9)
Construct: Conditioned media obtained from HT-1080 cells, which were transformed by RAGE technology (Athersys) to overexpress endogenous EL; endogenous in cells; conditioned medium used as the enzyme source
Test: Endothelial lipase (EL) enzymatic assay with fluorescent substrate A10070 in DMPG vesicles
Type: biochemical
Conditions: conditioned media from HT-1080 cells overexpressing endogenous EL; 20 min preincubation at 37° C.; read-out: HLE_EL_CRC IC50
IC50 by entry:
# output: bare number, implied unit nM

1) CC(C)CNc1c(C(=O)NCCCc2ccc(Cl)c(Cl)c2)ccn(C)c1=O; 200

The recorded IC50 for Cn1ccc(C(=O)NCCc2ccccc2Cl)c(O)c1=O is 8660
